experiment: P. aeruginosa biofilm formation inhibitors, primary screen, strain PAO1, LB-PBS medium, absorbance 600 nm (AID 1176); note: test concentration not given here; conditions: P. aeruginosa PAO1 growth/biofilm, A600, 12 h; higher = more signal
Each item that follows carries a reported z-score.
Returns: the value as a bare number; no unit string appended.

Study these solved cases before continuing.
COMPOUND	VALUE
CC[C@H]1C2=C3C(CC[C@H]4C(OC)OC[C@](C)([C@@H]34)N(C(=O)OC(C)(C)C)C2)C(CO)C1CO (some centres not stated)	0.452
C[C@]1(C(=O)NCCN2CCOCC2)c2ccccc2C(=O)N(Cc2ccccc2)[C@H]1c1ccc(CO)cc1	0.662
CC(C)[C@H]1NC(=O)[C@@]23C(=O)N[C@@H](Cc4ccccc4)C2[C@H](C)[C@@]2(C)O[C@H]2C3/C=C/C/C=C\CNC(=O)[C@H](C)NC1=O (some centres not stated)	1.13
O=C1O[C@H](c2ccccc2)[C@H](c2ccccc2)N2[C@H]1[C@@H](C(=O)NC[C@H](O)c1ccccc1)[C@]1(C(=O)Nc3ccc(C#CC4=CCCCC4)cc31)[C@H]2c1ccc(OCCO)cc1	2.05
COc1ccc(NN2C(C(O)c3cc(OC)c(OC)c(OC)c3)C=CC3C(=O)N(C4CCCCC4)C(=O)C32)cc1 (configuration not stated)	0.89

Return reported z-score; argument: `CCC#CCN(Cc1ccccc1Br)[C@H](/C=C/c1ccccc1)[C@@H](O)Cc1ccccc1` -0.553

Return reported z-score; argument: `C=C(CCCC)/C(=C/C[C@@H](OC(=O)c1ccncc1)c1ccc(CO)o1)c1cnc2ccccc2c1` 0.154

---

target: Torsin-1A (Homo sapiens) (UniProt O14656); assay: torsin A binders from cell lysate, primary screen, small-molecule microarray, wild-type, 635/667 nm (AID 1149); conditions: COS7 hTOR1A-WT lysate, 635 nm fluorescence, higher = more signal
Sequence (O14656 whole entry, looked up): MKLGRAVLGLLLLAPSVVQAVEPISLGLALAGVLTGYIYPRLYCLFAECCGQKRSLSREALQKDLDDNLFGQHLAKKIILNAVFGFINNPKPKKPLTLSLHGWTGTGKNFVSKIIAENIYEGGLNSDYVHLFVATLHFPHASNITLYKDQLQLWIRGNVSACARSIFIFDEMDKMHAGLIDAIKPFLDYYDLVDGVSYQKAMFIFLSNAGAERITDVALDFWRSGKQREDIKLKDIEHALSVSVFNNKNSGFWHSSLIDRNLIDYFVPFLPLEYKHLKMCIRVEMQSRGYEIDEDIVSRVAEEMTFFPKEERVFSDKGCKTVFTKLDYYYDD
MEASURED_PARAMETER: composite z-score
Returns: the value as a bare number; no unit string appended.

Study these solved cases before continuing.
SMILES_CODE	composite z-score
CC(=O)Nc1ccc([C@H]2[C@H](C)CC[C@H]3C(=O)N4[C@@H](CC[C@@H](C)[C@@H]4c4ccc(NC(C)=O)cc4)C(=O)N32)cc1	1.17
CCCC[C@@H]1C[C@H]1[C@@H](NC(=O)c1ccccc1)c1ccccc1C(F)(F)F	-0.113
CC(C)(C)OC(=O)CC[C@]1(C(=O)N2CCCCC2)N=C(c2ccc(OCCCO)cc2)O[C@H]1c1ccccc1	1.68

For Torsin-1A (Homo sapiens) (UniProt O14656), provide composite z-score of `COCCOC(=O)N1C(=O)[C@@]2(c3cc(C#CCNC(N)=O)ccc31)[C@H](C(=O)N1CCCCCCC1)[C@H]1C(=O)O[C@H](c3ccccc3)[C@H](c3ccccc3)N1[C@@H]2c1ccccc1OCCO` please. 0.207

---

Each item that follows carries a reported z-score.
assay: adipocyte viability effects, profiling panel, cell-based, 3T3-L1 adipocytes, calcein-AM fluorescence, 48 h, basal (AID 1163); conditions: 3T3-L1 adipocytes viability, higher = more signal; note: test concentration not given here
Returns: the value as a bare number; no unit string appended.

SMILES_CODE	z-score
C#CCCCON=C1C[C@@H](O)[C@@H](O)[C@@H]2[C@@H]3C(=O)N(Cc4ccc5c(c4)OCO5)C(=O)[C@@H]3CC[C@@H]12	-1.2
C=CCNC(=O)[C@H]1[C@@H]2C(=O)O[C@@H](c3ccccc3)[C@@H](c3ccccc3)N2[C@@H](c2ccccc2OCCO)[C@]12C(=O)N(C(=O)OCCOC)c1ccc(C#CCNC(N)=O)cc12	1.68

Would you kindly look at the next entry?
Return reported z-score; argument: `COc1cc2c(cc1OC)CN(C(=O)[C@@H]1[C@H]3C(=O)O[C@H](c4ccccc4)[C@H](c4ccccc4)N3[C@H](c3ccccc3OCCO)[C@@]13C(=O)Nc1ccccc13)CC2` 1.85

---

tested on: Inhibin beta A chain (activin A); assay: INHBA (activin A) binders on microarrays, primary screen, biochemical, small-molecule microarray, 635 nm fluorescence scan (AID 1107); settings: small-molecule microarray binding, higher = more signal;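 note: mouse activin A protein probed at 4.33 µg/mL on printed slides; score merges bound-protein fluorescence near 667 nm with spot signal-to-noise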
Rule: composite z-score under 0.1 gives NOT MET, otherwise MET.

Worked cases, answers included:
> print(dat)
                                   compound    group
1  C=CCN(C(=O)C1N(c2ccc(CCO)cc2)C(=O)C2C(C(=O)O)C3C=CC21O3)C(C)(C)C (configuration not stated)  NOT MET
2  NC(=O)[C@H]1[C@@H]2C(=O)O[C@@H](c3ccccc3)[C@@H](c3ccccc3)N2[C@@H](c2ccc(O)cc2)[C@]12C(=O)Nc1ccc(C#CCCO)cc12  NOT MET
3  COc1ccc(CCN2C(=O)[C@@]3(c4ccc([N+](=O)[O-])cc4)CC(=O)N(CC45CC6CC(CC(C6)C4)C5)[C@@H]3c3ccc(CO)cc32)cc1      MET
4  Cc1ccc(S[C@]2(C(=O)NC(C)C)CC(=O)N(C3Cc4ccccc4C3)[C@@H]2c2ccc(CO)cc2)cc1  NOT MET
5  O=[N+]([O-])c1ccc(C[n+]2ccc3ccc(O)cc3c2)o1      MET
6  CO[C@@H]1COC(=O)CC=C[C@H](C)COC(=O)[C@H](Cc2ccccc2)NC(=O)CC=C[C@H]1C      MET

Turning now to a further compound:
Is the recorded value of composite z-score equal to or greater than 0.1 for this compound? `COCCCNC(=O)[C@@]1(Sc2ccc(C)cc2)CC(=O)N(Cc2cc(C(F)(F)F)cc(C(F)(F)F)c2)[C@@H]1c1ccc(CO)cc1I` MET

---

test system: Fibrinogen (Alexa647-labelled); experiment: fibrinogen binders on compound microarrays, profiling panel, artefact control for SMM control-protein annotation, biochemical, small-molecule microarray, 635/667 nm fluorescence (AID 1131); details: fibrinogen-A647 binding fluorescence, higher = more signal;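 note: z-score merges 667 nm fluorescence with per-spot signal-to-noise over triplicate slides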
Each item that follows carries a reported composite z-score.
Returns: the value as a bare number; no unit string appended.

Study these solved cases before continuing.
COMPOUND	composite z-score
COc1ccc([Si](C)(C)[C@@H]2[C@@H](CCO)O[C@]3(C(=O)N(Cc4ccccc4)c4ccccc43)[C@H]2C)cc1	-0.153
CC(C)C[C@@H]1NC(=O)[C@H](CC(C)C)NC(=O)[C@@]23C(=O)N[C@@H](Cc4ccccc4)C2[C@H](C)[C@@]2(C)O[C@H]2C3/C=C/CC/C=C/CNC1=O (stereo partly specified)	0.722
CN1C(=O)C2C=CC(C(O)c3ccc(N(C)C)cc3)N(Nc3ccc([N+](=O)[O-])cc3[N+](=O)[O-])C2C1=O (stereo unspecified)	1.01
COC(=O)C1=CC(c2ccc(CO)cc2)=CC(c2cccs2)N(Cc2cccc(OC(F)(F)F)c2)C=C1C(=O)OC (stereo unspecified)	0.97
CC(=O)Nc1ccc([C@H]2[C@H](C)CC[C@H]3C(=O)N4[C@@H](CC[C@@H](C)[C@@H]4c4ccc(NC(C)=O)cc4)C(=O)N32)cc1	0.798

Return reported composite z-score; argument: `COCCOC(=O)N1C(=O)[C@@]2(c3cc(C#CCC(C(=O)OC)C(=O)OC)ccc31)[C@H](C(=O)N1CCN(c3ncccn3)CC1)[C@H]1C(=O)O[C@H](c3ccccc3)[C@H](c3ccccc3)N1[C@@H]2c1ccc(O)cc1` 0.65

---

test: PSAC antagonists in infected red cells, primary screen, cell-based, P. falciparum Indochina, OD700, 18 h (AID 1157); conditions: P. falciparum Indochina infected erythrocytes, osmotic lysis OD700, 18 h; higher = more signal, called active from +8 up or from −8 down
Rule: z-score under 0.5 gives Criterion not met, otherwise Criterion met.

Worked cases, answers included:
COMPOUND	GROUP
COCCOC(=O)N1C(=O)[C@@]2(c3cc(C#CCNC(N)=O)ccc31)[C@H](c1ccc(OCCO)cc1)N1[C@H](c3ccccc3)[C@H](c3ccccc3)OC(=O)[C@H]1[C@@H]2C(=O)Nc1nc2ccccc2s1	Criterion met
CO[C@H]1O[C@H](CO)[C@@H](OC(=O)Nc2ccc(Oc3ccccc3)cc2)[C@H](OC(=O)Nc2ccccc2-c2ccccc2)[C@H]1OC(=O)Nc1ccccc1-c1ccccc1	Criterion not met
COc1ccc(CCNC(=O)[C@@]2(c3ccc([N+](=O)[O-])cc3)CC(=O)N(C(C)C)[C@@H]2c2ccc(CO)cc2)cc1	Criterion met

Is the recorded value of z-score equal to or greater than 0.5 for this compound? `CCN1C(C)=C(C(=O)OC)[C@@H](c2ccccc2)N2C(=O)[C@@]3(C(=O)OC)O[C@@]12[C@@H]1C(=O)CCC[C@@H]13` Criterion not met

Is the recorded value of z-score equal to or greater than 0.5 for this compound? `COc1ccc(C(=O)Nc2ccc(CN3C(=O)[C@]4(O[C@H](CCn5cc(CCO)nn5)[C@@H]([Si](C)(C)c5ccc(OC)cc5)[C@@H]4C)c4ccccc43)cc2)cc1` Criterion met

Is the recorded value of z-score equal to or greater than 0.5 for this compound? `Cc1ccc(N2C(=O)c3ccccc3[C@@H](C(=O)NCc3ccccc3)[C@@H]2c2ccc(CO)cc2)nc1` Criterion not met

Is the recorded value of z-score equal to or greater than 0.5 for this compound? `O=C1O[C@H](c2ccccc2)[C@H](c2ccccc2)N2[C@H]1[C@@H](C(=O)Nc1nc3ccccc3s1)[C@]1(C(=O)Nc3ccc(C#CC4(O)CCCCCC4)cc31)[C@H]2c1ccc(O)cc1` Criterion met

Is the recorded value of z-score equal to or greater than 0.5 for this compound? `O=C1c2ccccc2[C@](Cc2ccccc2I)(C(=O)O)[C@H](c2ccc(CO)cc2)N1C1CCCCC1` Criterion not met

Is the recorded value of z-score equal to or greater than 0.5 for this compound? `Cc1ccc(S[C@]2(C(=O)O)CC(=O)N(Cc3ccccc3)[C@@H]2c2ccc(CO)cc2)cc1` Criterion not met
